Hello, the source for this data is the NIST ThermoML archive (doi:10.1021/je100848r), in case you need it.

Measured viscosity values are reported for all entries that follow.
test_settings: 313.15 K; 101 kPa; Liquid
Numbers after ± are expanded uncertainties.
Don't forget the unit after the number, please.

- molecule: "CO"
  viscosity: "0.501 ± 0.022 mPa·s"
- molecule: "CCO"
  viscosity: "0.8424 ± 0.026 mPa·s"
- molecule: "CCCO"
  viscosity: "1.391 ± 0.033 mPa·s"

Attention now shifts to the item below.
Query: If you can, please state the reported viscosity value of CCC(=O)[O-].OCC[NH2+]CCO [bis(2-hydroxyethyl)ammonium propanoate] .
Result: 157.97 ± 9.9 mPa·s

* * *

test_settings: 323.15 K; 101 kPa; Liquid
measurement_kind: viscosity (mPa·s)
Please state the figure in mPa·s; there is no need to write the unit.

Here's what some known entries look like.
- compound: "CCC(=O)[O-].OCC[NH2+]CCO [bis(2-hydroxyethyl)ammonium propanoate]"
  units_text: "mPa·s"
  viscosity: 96.54
- compound: "CCCO"
  units_text: "mPa·s"
  viscosity: 1.098
- compound: "CO"
  units_text: "mPa·s"
  viscosity: 0.4601

Query: Query (compound): CCO ; field requested: viscosity
Result: 0.7081

* * *

test_settings: 303.15 K; 101 kPa; Liquid
measurement_kind: viscosity (mPa·s)
# number only, unit mPa·s dropped from output

Some entries whose results are on file:
- molecule: "CCC(=O)[O-].OCC[NH2+]CCO [bis(2-hydroxyethyl)ammonium propanoate]"
  viscosity (mPa·s): 322.17
- molecule: "CCO [ethanol]"
  viscosity (mPa·s): 1.019

Query: Look at this molecule and give its reported viscosity. CO [methanol]
Result: 0.5535

Query: # input molecule: CCCO [propan-1-ol] ; wanted: its viscosity
Result: 1.788

* * *

test_settings: 313.15 K; 101 kPa; Liquid
Reported values of mass density for individual entries
Dear colleague, please return just the value in kg/m3, with no unit written.

Before answering, review these 3 worked examples.
- compound: "CO"
  observed_measurement: 772.3
- compound: "CCCO"
  observed_measurement: 787.6
- compound: "CCO"
  observed_measurement: 772.5

Query: State the recorded mass density for this entry: CCC(=O)[O-].OCC[NH2+]CCO [bis(2-hydroxyethyl)ammonium propanoate]
Result: 1129.2

* * *

test_settings: 303.15 K; 101 kPa; Liquid
measurement_kind: mass density (kg/m3)
Give just the numeric value; kg/m3 need not be written.

- compound: "CCO"
  mass density, kg/m3: 780.7
- compound: "CCCO"
  mass density, kg/m3: 795.5
- compound: "CO"
  mass density, kg/m3: 781.8

Let us examine a further case.
Query: Recorded mass density of CCC(=O)[O-].OCC[NH2+]CCO [bis(2-hydroxyethyl)ammonium propanoate] , please.
Result: 1136.1

* * *

test_settings: 293.15 K; 101 kPa; Liquid
Numbers after ± are expanded uncertainties.
viscosity: recorded values
A complete answer gives the number followed by the unit.

Examples with their reported viscosity follow.
- molecule: "CCO"
  viscosity: "1.18 ± 0.03 mPa·s"
- molecule: "CCC(=O)[O-].OCC[NH2+]CCO [bis(2-hydroxyethyl)ammonium propanoate]"
  viscosity: "740.28 ± 110 mPa·s"
- molecule: "CCCO"
  viscosity: "2.141 ± 0.042 mPa·s"

Query: Item under review: CO . Reported viscosity?
Result: 0.6075 ± 0.023 mPa·s

* * *

test_settings: 323.15 K; 101 kPa; Liquid
± gives the expanded uncertainty stated by the source.
measurement_kind: mass density

- compound: "CCCO [propan-1-ol]"
  measurement_kind: "mass density"
  observed_measurement: "778.7 ± 2 kg/m3"
- compound: "CCC(=O)[O-].OCC[NH2+]CCO [bis(2-hydroxyethyl)ammonium propanoate]"
  measurement_kind: "mass density"
  observed_measurement: "1125.2 ± 2.3 kg/m3"

Query: Fill in the blank: the reported mass density of CO [methanol] is ____.
Result: 765.1 ± 2.1 kg/m3

Query: Param item = CCO [ethanol] ; retrieve measured mass density.
Result: 763.6 ± 2.1 kg/m3

* * *

test_settings: 293.15 K; 101 kPa; Liquid
Numbers after ± are expanded uncertainties.
measurement_kind: mass density

- molecule: "CCC(=O)[O-].OCC[NH2+]CCO [bis(2-hydroxyethyl)ammonium propanoate]"
  mass density: "1142.7 ± 2.4 kg/m3"
- molecule: "CO [methanol]"
  mass density: "791.2 ± 1.9 kg/m3"
- molecule: "CCCO [propan-1-ol]"
  mass density: "803.2 ± 1.9 kg/m3"

Query: # mass density lookup, item CCO [ethanol]
Result: 789.3 ± 1.9 kg/m3
